- study.target: HLA-B*08:01
- experiment.description: IEDB peptide-MHC binding, purified MHC/competitive/fluorescence; filed as Kd, often an IC50 or EC50 that approximates it; bounds were set here for any values at or beyond the usual limits of such assays
- condition.info: source organism: Salmonella enterica subsp. enterica serovar Typhi

- ordered.residues: "LSEEANWAF"
  Kd: "≥ 20 µM"

====

- study.target: HLA-A*01:01
- experiment.description: IEDB peptide-MHC binding, purified MHC/competitive/radioactivity; filed as Kd, often an IC50 or EC50 that approximates it; bounds were set here for any values at or beyond the usual limits of such assays
- condition.info: source organism: Mammarenavirus choriomeningitidis
pKd: −log10 of the molar value.

- ordered.residues: "EGFMRKQKY"
  pKd: "≤ 4.30"
- ordered.residues: "DTSNTGRAEL"
  pKd: "≤ 4.30"

====

- study.target: HLA-A*02:03
- experiment.description: IEDB peptide-MHC binding, purified MHC/direct/fluorescence; filed as Kd, often an IC50 or EC50 that approximates it; bounds were set here for any values at or beyond the usual limits of such assays
- condition.info: source organism: Convict Creek 107 virus

- ordered.residues: "TEFFMSRKL"
  Kd: "≥ 20 µM"

====

- study.target: HLA-B*51:01
- experiment.description: IEDB peptide-MHC binding, purified MHC/competitive/fluorescence; filed as Kd, often an IC50 or EC50 that approximates it; bounds were set here for any values at or beyond the usual limits of such assays
- condition.info: source organism: Tetraodon nigroviridis
parameter.measured: Kd

- ordered.residues: "NTFKFGVIY"
  readout.value: "≥ 20 µM"

====

- study.target: HLA-B*15:01
- experiment.description: IEDB peptide-MHC binding, purified MHC/direct/fluorescence; filed as Kd, often an IC50 or EC50 that approximates it; bounds were set here for any values at or beyond the usual limits of such assays
- condition.info: source organism: Brucella abortus
pKd: −log10 of the molar value.

- ordered.residues: "RFRCVGPAP"
  pKd: "≤ 4.70"

====

- study.target: HLA-A*03:01
- experiment.description: IEDB peptide-MHC binding, purified MHC/competitive/fluorescence; bounds were set here for any values at or beyond the usual limits of such assays
- condition.info: source organism: Vaccinia virus Copenhagen
parameter.measured: IC50 (µM)

- ordered.residues: "TKITFALKK"
  readout.value: 39.6

====

- study.target: HLA-A*68:02
- experiment.description: IEDB peptide-MHC binding, purified MHC/competitive/fluorescence; filed as Kd, often an IC50 or EC50 that approximates it; bounds were set here for any values at or beyond the usual limits of such assays
- condition.info: source organism: Bacillus anthracis str. A0488

- ordered.residues: "IQKGMFVVK"
  study.target: "HLA-A*68:02"
  Kd: "≥ 20 µM"

====

- study.target: HLA-B*58:01
- experiment.description: IEDB peptide-MHC binding, purified MHC/direct/fluorescence; filed as Kd, often an IC50 or EC50 that approximates it; bounds were set here for any values at or beyond the usual limits of such assays
- condition.info: source organism: Escherichia coli O157:H7
pKd: −log10 of the molar value.
parameter.measured: pKd

- ordered.residues: "KSWPAAIDW"
  readout.value: 8.82

====

- study.target: HLA-B*07:02
- experiment.description: IEDB peptide-MHC binding, purified MHC/direct/fluorescence; filed as Kd, often an IC50 or EC50 that approximates it; bounds were set here for any values at or beyond the usual limits of such assays
- condition.info: source organism: Human immunodeficiency virus 1
pKd: −log10 of the molar value.

- ordered.residues: "ATPQDLNTM"
  study.target: "HLA-B*07:02"
  pKd: 4.95
